Catalogue of molecules with associated MIC
# Test system: Staphylococcus epidermidis
# measurement-protocol: Antimicrobial activity against Staphylococcus epidermidis ATCC 12228 after 18 hrs by broth microdilution method
# Format: functional
Residues, ends and D or L forms follow the SMILES beside them. *: point of attachment. Stearoyl = CCCCCCCCCCCCCCCCCC(=O)*; Myristoyl = CCCCCCCCCCCCCC(=O)*; Lauroyl = CCCCCCCCCCCC(=O)*; Decanoyl = CCCCCCCCCC(=O)*; Octanoyl = CCCCCCCC(=O)*
Write the value in µM as a bare number.

CCCCCCCC(=O)N[C@@H](CCCNC(=N)N)C(=O)N[C@@H](CCCNC(=N)N)C(=O)N[C@@H](Cc1c[nH]c2ccccc12)C(N)=O (Octanoyl-Arg-Arg-Trp-NH2) : 64
CCCCCCCCCCCCCCCCCC(=O)N[C@@H](CCCNC(=N)N)C(=O)N[C@@H](CCCNC(=N)N)C(=O)N[C@@H](CCCNC(=N)N)C(N)=O (Stearoyl-Arg-Arg-Arg-NH2) : 8
CCCCCCCCCC(=O)N[C@@H](Cc1c[nH]c2ccccc12)C(=O)N[C@@H](CCCNC(=N)N)C(=O)N[C@@H](CCCNC(=N)N)C(N)=O (Decanoyl-Trp-Arg-Arg-NH2) : 8
CCCCCCCCCCCC(=O)N[C@@H](CCCNC(=N)N)C(=O)N[C@@H](CCCNC(=N)N)C(=O)N[C@@H](Cc1c[nH]c2ccccc12)C(N)=O (Lauroyl-Arg-Arg-Trp-NH2) : 4
CCCCCCCCCCCCCC(=O)N[C@@H](CCCNC(=N)N)C(=O)N[C@@H](Cc1c[nH]c2ccccc12)C(=O)N[C@@H](Cc1c[nH]c2ccccc12)C(N)=O (Myristoyl-Arg-Trp-Trp-NH2) : 16
CCCCCCCCCC(=O)N[C@@H](CCCNC(=N)N)C(=O)N[C@@H](Cc1c[nH]c2ccccc12)C(=O)N[C@@H](CCCNC(=N)N)C(N)=O (Decanoyl-Arg-Trp-Arg-NH2) : 16

Please give the measured MIC for this molecule: CCCCCCCCCCCCCCCCCC(=O)N[C@@H](Cc1c[nH]c2ccccc12)C(=O)N[C@@H](CCCNC(=N)N)C(=O)N[C@@H](CCCNC(=N)N)C(N)=O (Stearoyl-Trp-Arg-Arg-NH2) 8

Please give the measured MIC for this molecule: CCCCCCCC(=O)N[C@@H](Cc1c[nH]c2ccccc12)C(=O)N[C@@H](CCCNC(=N)N)C(=O)N[C@@H](CCCNC(=N)N)C(N)=O (Octanoyl-Trp-Arg-Arg-NH2) 32

Ref: ChEMBL document CHEMBL4706653
